Method summary: Phase 1 DDI study with ketoconazole in healthy subjects
Type: in vivo, human
Condition notes: both, human, plasma, oral, 100 mg
Observed property: AUC(0-inf) (ng·h/mL)
Only the number, expressed in ng·h/mL, is required.

Can you share its AUC(0-inf)? I mean this compound: "Cc1cc(C)c2c(c1)[C@@H](N(Cc1cc(C(F)(F)F)cc(C(F)(F)F)c1)c1nnn(C)n1)CCCN2C[C@H]1CC[C@H](C(=O)O)CC1"
5260

----------
Method summary: Phase 1 DDI study with gemfibrozil in healthy subjects
Type: in vivo, human
Condition notes: both, human, plasma, oral, 130 mg
Observed property: Cmax (µg/mL)
Only the number, expressed in µg/mL, is required.

Can you share its Cmax? I mean this compound: "Cc1cc(C)c2c(c1)[C@@H](N(Cc1cc(C(F)(F)F)cc(C(F)(F)F)c1)c1nnn(C)n1)CCCN2C[C@H]1CC[C@H](C(=O)O)CC1"
1.27
